- assayed_system: PolQ ATPase enzyme (1-894) (Homo sapiens (Human))
- method: Polθ ATPase enzymatic assay (0.5 nM enzyme concentration), ADP-Glo
- Assay type: biochemical
- condition_details: average IC50; 0.5 nM PolQ ATPase enzyme (1-894)
measurement_kind: IC50

[
  {
    "compound": "COc1cnc(C(F)F)cc1-c1cc(C#CC2CCOC2)ncc1C(=O)Nc1ncc(C#CC2CC2)s1 (centres unmarked)",
    "measurement_kind": "IC50",
    "observed_result": "0.29 nM"
  },
  {
    "compound": "COc1cnc(Cl)cc1-c1cn(CC(=O)N2CCOCC2)c(=O)cc1C(=O)Nc1nnc(C#CC2CC2)s1",
    "measurement_kind": "IC50",
    "observed_result": "3.4 nM"
  },
  {
    "compound": "COc1cnc(C(F)F)cc1-c1cc(N2CC3(CC(C(=O)N(C)C)C3)C2)ncc1C(=O)Nc1nnc(C#CC2CC2)s1",
    "measurement_kind": "IC50",
    "observed_result": "1.6 nM"
  },
  {
    "compound": "COc1cnc(C(F)F)cc1-c1cc(C)ncc1C(=O)Nc1nnc(C#CC2CC2)s1",
    "measurement_kind": "IC50",
    "observed_result": "< 0.25 nM"
  },
  {
    "compound": "COc1cnc(C(F)F)cc1-c1cc(-n2cccc(F)c2=O)ncc1C(=O)Nc1nnc(C#CC2CC2)s1",
    "measurement_kind": "IC50",
    "observed_result": "< 0.25 nM"
  },
  {
    "compound": "COc1cnc(C(F)F)cc1-c1cc(-n2c(F)cccc2=O)ncc1C(=O)Nc1nnc(C#CC2CC2)s1",
    "measurement_kind": "IC50",
    "observed_result": "< 0.25 nM"
  },
  {
    "compound": "COc1cnc(C(F)F)cc1-c1cc(N2CC[C@@H]3C[C@@H]3C2=O)ncc1C(=O)Nc1nnc(C#CC2CC2)s1",
    "measurement_kind": "IC50",
    "observed_result": "< 0.25 nM"
  },
  {
    "compound": "COc1cnc(C(F)F)cc1-c1cc(-c2nnc(C)o2)ccc1C(=O)Nc1nnc(C#CC2CC2)s1",
    "measurement_kind": "IC50",
    "observed_result": "0.78 nM"
  },
  {
    "compound": "COc1ccc(C(F)F)cc1-c1cnccc1C(=O)Nc1nnc(C#CC2CC23CC3)s1 (centres unmarked)",
    "measurement_kind": "IC50",
    "observed_result": "< 0.25 nM"
  },
  {
    "compound": "COc1cnc(C(F)F)cc1-c1cc(N(C)c2nnc(C)o2)ccc1C(=O)Nc1ncc(C#CC2CC2)s1",
    "measurement_kind": "IC50",
    "observed_result": "23 nM"
  },
  {
    "compound": "COc1cnc(C(F)F)cc1-c1cc(Nc2nnc(C)o2)ccc1C(=O)Nc1nnc(C#CC2CC2)s1",
    "measurement_kind": "IC50",
    "observed_result": "1.2 nM"
  },
  {
    "compound": "COc1cnc(C(F)F)cc1-c1cc(-c2cc[nH]n2)ncc1C(=O)Nc1nnc(C#CC2CC2)s1",
    "measurement_kind": "IC50",
    "observed_result": "< 0.25 nM"
  },
  {
    "compound": "COc1cnc(C(F)F)cc1-c1cc(N(C)C(=O)C2CC2)ccc1C(=O)Nc1nnc(C#CC2CC2)s1",
    "measurement_kind": "IC50",
    "observed_result": "< 0.25 nM"
  },
  {
    "compound": "COc1cnc(C(F)F)cc1-c1cc(-n2ccc3occc3c2=O)ncc1C(=O)Nc1nnc(C#CC2CC2)s1",
    "measurement_kind": "IC50",
    "observed_result": "< 0.25 nM"
  },
  {
    "compound": "COc1cnc(C(F)F)cc1-c1cc(N2CCO[C@@H](C)C2=O)ncc1C(=O)Nc1nnc(C#CC2CC2)s1",
    "measurement_kind": "IC50",
    "observed_result": "< 0.25 nM"
  },
  {
    "compound": "Cc1cc(C#Cc2nnc(NC(=O)c3ccncc3-c3cc(Cl)ncc3OC(F)F)s2)n[nH]1",
    "measurement_kind": "IC50",
    "observed_result": "< 0.25 nM"
  },
  {
    "compound": "[2H]C([2H])([2H])N(C(C)=O)c1ccc(C(=O)Nc2nnc(C#CC3CC34CC4)s2)c(-c2cc(C(F)F)ncc2OC)c1 (centres unmarked)",
    "measurement_kind": "IC50",
    "observed_result": "< 0.25 nM"
  }
]

====

- assayed_system: PolQ ATPase enzyme (1-894) (Homo sapiens (Human), UniProt O75417)
- Sequence (O75417 1-894): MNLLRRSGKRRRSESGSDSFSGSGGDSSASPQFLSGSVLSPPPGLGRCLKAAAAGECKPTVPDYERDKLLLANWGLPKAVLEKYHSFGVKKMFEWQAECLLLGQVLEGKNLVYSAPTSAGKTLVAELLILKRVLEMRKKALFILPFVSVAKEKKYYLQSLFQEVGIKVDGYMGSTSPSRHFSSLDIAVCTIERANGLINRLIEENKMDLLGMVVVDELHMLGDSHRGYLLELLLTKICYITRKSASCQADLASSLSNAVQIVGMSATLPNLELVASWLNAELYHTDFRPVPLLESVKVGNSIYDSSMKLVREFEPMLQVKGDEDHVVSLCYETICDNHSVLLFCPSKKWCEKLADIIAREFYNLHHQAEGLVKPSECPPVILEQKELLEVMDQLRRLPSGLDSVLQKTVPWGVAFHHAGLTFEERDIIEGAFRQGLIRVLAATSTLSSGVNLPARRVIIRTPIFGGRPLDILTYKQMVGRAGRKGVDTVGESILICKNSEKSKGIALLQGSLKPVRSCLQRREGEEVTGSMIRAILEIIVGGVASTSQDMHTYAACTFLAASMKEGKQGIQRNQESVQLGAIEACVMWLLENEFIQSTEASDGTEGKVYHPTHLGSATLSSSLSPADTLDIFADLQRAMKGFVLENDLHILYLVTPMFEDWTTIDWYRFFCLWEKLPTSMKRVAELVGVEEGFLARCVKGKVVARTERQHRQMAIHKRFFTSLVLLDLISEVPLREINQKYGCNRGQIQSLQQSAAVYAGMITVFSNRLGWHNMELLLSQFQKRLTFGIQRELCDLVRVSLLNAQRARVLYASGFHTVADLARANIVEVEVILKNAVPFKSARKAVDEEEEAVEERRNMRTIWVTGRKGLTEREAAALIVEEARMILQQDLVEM
- method: Polθ ATPase enzymatic assay (0.5 nM enzyme concentration), ADP-Glo
- Format: biochemical
- condition_details: average IC50; 0.5 nM PolQ ATPase enzyme (1-894)
measurement_kind: IC50

[
  {
    "compound": "COc1cnc(C(F)F)cc1-c1cc(N2CCC3CCC3C2=O)ncc1C(=O)Nc1nnc(C#CC2CC2)s1 (stereo not drawn)",
    "measurement_kind": "IC50",
    "observed_result": "< 0.25 nM"
  },
  {
    "compound": "COc1cnc(C(F)F)cc1-c1cc(-c2cn(C)cn2)ccc1C(=O)Nc1nnc(C#CC2CC2)s1",
    "measurement_kind": "IC50",
    "observed_result": "< 0.25 nM"
  },
  {
    "compound": "Cc1nnc(-n2cc(-c3cc(C(F)(F)F)ccc3Cl)c(C(=O)Nc3nnc(C#CC4CC4)s3)cc2=O)o1",
    "measurement_kind": "IC50",
    "observed_result": "< 0.25 nM"
  },
  {
    "compound": "Cc1nnc(Cn2cc(-c3cc(C(F)(F)F)ccc3Cl)c(C(=O)Nc3nnc(C#CC4CC4)s3)cc2=O)o1",
    "measurement_kind": "IC50",
    "observed_result": "< 0.25 nM"
  },
  {
    "compound": "COc1cnc(Cl)cc1-c1cn(C)c(=O)cc1C(=O)Nc1nnc(C#Cc2cc(C)[nH]n2)s1",
    "measurement_kind": "IC50",
    "observed_result": "1.2 nM"
  },
  {
    "compound": "COc1ccc(C(F)F)cc1-c1cc(C(=O)N(C)C)ncc1C(=O)Nc1nnc(C#CC2CC2)s1",
    "measurement_kind": "IC50",
    "observed_result": "< 0.25 nM"
  },
  {
    "compound": "COc1cnc(Cl)cc1-c1cc(C2(C(=O)O)CC2)ccc1C(=O)Nc1nnc(C#CC2CC2)s1",
    "measurement_kind": "IC50",
    "observed_result": "1.3 nM"
  },
  {
    "compound": "COc1cnc(C(F)F)cc1-c1cc(-c2cnn(CCO)c2)ccc1C(=O)Nc1nnc(C#CC2CC2)s1",
    "measurement_kind": "IC50",
    "observed_result": "< 0.25 nM"
  },
  {
    "compound": "COCCn1ccc(-c2cc(-c3cc(C(F)F)ncc3OC)c(C(=O)Nc3nnc(C#CC4CC4)s3)cn2)n1",
    "measurement_kind": "IC50",
    "observed_result": "0.27 nM"
  },
  {
    "compound": "COc1cnc(C(F)F)cc1-c1cc(CC(=O)N(C)C)ncc1C(=O)Nc1nc(C)c(C#CC2CC2)s1",
    "measurement_kind": "IC50",
    "observed_result": "1.6 nM"
  },
  {
    "compound": "COc1cnc(C(F)F)cc1-c1cc(-n2cncn2)ncc1C(=O)Nc1nnc(C#CC2CC2)s1",
    "measurement_kind": "IC50",
    "observed_result": "< 0.25 nM"
  },
  {
    "compound": "COc1cnc(Cl)cc1-c1cn2ncnc2cc1C(=O)Nc1nnc(C#CC2CC23CC3)s1 (stereo not drawn)",
    "measurement_kind": "IC50",
    "observed_result": "1.9 nM"
  },
  {
    "compound": "C#C[C@H]1CC1c1nnc(NC(=O)c2cnc(-n3ccc(C)cc3=O)cc2-c2cc(C(F)F)ncc2OC)s1 (stereo partly drawn)",
    "measurement_kind": "IC50",
    "observed_result": "< 0.25 nM"
  },
  {
    "compound": "COc1cnc(C(F)F)cc1-c1cc(N2CCn3nccc3C2=O)ncc1C(=O)Nc1nnc(C#CC2CC2)s1",
    "measurement_kind": "IC50",
    "observed_result": "< 0.25 nM"
  },
  {
    "compound": "Cc1ccn(-c2cc(-c3cc(C(F)F)ncc3Cl)c(C(=O)Nc3nnc(C#CC4CC4)s3)cn2)c(=O)c1",
    "measurement_kind": "IC50",
    "observed_result": "< 0.25 nM"
  }
]

====

- assayed_system: PolQ ATPase enzyme (1-894) (Homo sapiens (Human), UniProt O75417)
- method: Polθ ATPase enzymatic assay (0.5 nM enzyme concentration), ADP-Glo
- Type: biochemical
- condition_details: average IC50; 0.5 nM PolQ ATPase enzyme (1-894)
measurement_kind: IC50 (nM)

[
  {
    "structure_smiles": "COc1cnc(C(F)F)cc1-c1cc(-n2cc(F)c(C)cc2=O)ncc1C(=O)Nc1nnc(C#CC2CC2)s1",
    "assayed_system": "PolQ ATPase enzyme (1-894) (Homo sapiens (Human), UniProt O75417)",
    "limit_operator": "<",
    "observed_result": 0.25
  },
  {
    "structure_smiles": "CNC(=O)Cn1cc(-c2cc(C(F)(F)F)cnc2OC)c(C(=O)Nc2nnc(C#CC3CC3)s2)cc1=O",
    "assayed_system": "PolQ ATPase enzyme (1-894) (Homo sapiens (Human), UniProt O75417)",
    "limit_operator": "=",
    "observed_result": 1.2
  },
  {
    "structure_smiles": "COc1cnc(C(F)F)cc1-c1cc(Cl)ncc1C(=O)Nc1nnc(C#CC2CC2)s1",
    "assayed_system": "PolQ ATPase enzyme (1-894) (Homo sapiens (Human), UniProt O75417)",
    "limit_operator": "=",
    "observed_result": 0.35
  },
  {
    "structure_smiles": "COc1cnc(C(F)F)cc1-c1cc(N2CCCC2=O)ncc1C(=O)Nc1nnc(C#CC2CC2)s1",
    "assayed_system": "PolQ ATPase enzyme (1-894) (Homo sapiens (Human), UniProt O75417)",
    "limit_operator": "=",
    "observed_result": 4.3
  },
  {
    "structure_smiles": "COc1cnc(C(F)F)cc1-c1cc(N2CCN(CC3CC3)CC2=O)ncc1C(=O)Nc1nnc(C#CC2CC2)s1",
    "assayed_system": "PolQ ATPase enzyme (1-894) (Homo sapiens (Human), UniProt O75417)",
    "limit_operator": "<",
    "observed_result": 0.25
  },
  {
    "structure_smiles": "COc1cnc(C(F)F)cc1-c1cc(N2CC3(CCOCC3)CC2=O)ncc1C(=O)Nc1nnc(C#CC2CC2)s1",
    "assayed_system": "PolQ ATPase enzyme (1-894) (Homo sapiens (Human), UniProt O75417)",
    "limit_operator": "=",
    "observed_result": 7.2
  },
  {
    "structure_smiles": "COc1cnc(C(F)F)cc1-c1cc(N2CCN(C(=O)OC(C)(C)C)CC2=O)ccc1C(=O)Nc1nnc(C#CC2CC2)s1",
    "assayed_system": "PolQ ATPase enzyme (1-894) (Homo sapiens (Human), UniProt O75417)",
    "limit_operator": "=",
    "observed_result": 0.26
  },
  {
    "structure_smiles": "COc1ccc(C(F)F)cc1-c1cn2ncnc2cc1C(=O)Nc1nnc(C#CC2CC2)s1",
    "assayed_system": "PolQ ATPase enzyme (1-894) (Homo sapiens (Human), UniProt O75417)",
    "limit_operator": "=",
    "observed_result": 3.1
  },
  {
    "structure_smiles": "COc1cnc(Cl)cc1-c1cc(C#CC2(O)COC2)ccc1C(=O)Nc1nnc(C#CC2CC2)s1",
    "assayed_system": "PolQ ATPase enzyme (1-894) (Homo sapiens (Human), UniProt O75417)",
    "limit_operator": "<",
    "observed_result": 0.25
  },
  {
    "structure_smiles": "COc1cnc(C(F)F)cc1-c1cc(Oc2cnn(C)c2)ncc1C(=O)Nc1nnc(C#CC2CC2)s1",
    "assayed_system": "PolQ ATPase enzyme (1-894) (Homo sapiens (Human), UniProt O75417)",
    "limit_operator": "=",
    "observed_result": 0.64
  }
]
